biological target: MERTK (UniProt Q12866); assay: phosphorylation enrichment, bacterial display (enrichment ratio); higher = better substrate or ligand; peptides without Tyr show the background;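 further: 11-residue human phosphosite peptides and single-mutation variants displayed on the E. coli surface, counted by deep sequencing, each peptide's frequency after selection divided by its frequency in the unselected input library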;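 further: frequency after pTyr selection over input frequency; kinase dosed for 20-30% of maximal phosphorylation in three min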
Sequence (Q12866 whole entry, looked up): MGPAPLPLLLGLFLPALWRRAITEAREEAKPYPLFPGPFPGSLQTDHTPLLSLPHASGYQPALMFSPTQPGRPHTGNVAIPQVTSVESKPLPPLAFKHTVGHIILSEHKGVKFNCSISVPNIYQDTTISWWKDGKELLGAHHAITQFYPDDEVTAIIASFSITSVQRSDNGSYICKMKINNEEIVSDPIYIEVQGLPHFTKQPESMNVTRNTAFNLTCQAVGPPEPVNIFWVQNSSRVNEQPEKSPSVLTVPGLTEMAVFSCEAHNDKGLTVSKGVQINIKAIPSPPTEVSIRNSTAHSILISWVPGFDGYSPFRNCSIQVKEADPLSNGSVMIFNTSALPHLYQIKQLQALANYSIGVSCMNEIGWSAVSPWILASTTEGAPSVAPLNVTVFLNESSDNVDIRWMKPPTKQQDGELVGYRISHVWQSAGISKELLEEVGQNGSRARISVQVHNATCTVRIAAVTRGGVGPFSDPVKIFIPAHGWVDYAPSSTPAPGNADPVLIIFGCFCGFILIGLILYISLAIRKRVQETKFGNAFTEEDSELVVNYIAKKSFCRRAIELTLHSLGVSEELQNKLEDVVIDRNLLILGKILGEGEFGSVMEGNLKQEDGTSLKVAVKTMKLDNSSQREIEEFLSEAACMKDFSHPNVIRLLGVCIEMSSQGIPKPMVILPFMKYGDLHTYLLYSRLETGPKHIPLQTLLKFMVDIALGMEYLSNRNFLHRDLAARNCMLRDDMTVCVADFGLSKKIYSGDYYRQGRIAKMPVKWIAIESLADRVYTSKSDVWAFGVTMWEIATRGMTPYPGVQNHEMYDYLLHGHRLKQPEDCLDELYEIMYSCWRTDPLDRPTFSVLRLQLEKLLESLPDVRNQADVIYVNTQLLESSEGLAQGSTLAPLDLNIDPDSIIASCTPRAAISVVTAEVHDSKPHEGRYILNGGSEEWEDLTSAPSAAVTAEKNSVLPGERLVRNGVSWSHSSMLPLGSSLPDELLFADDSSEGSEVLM
measurement-label: phosphorylation enrichment
The reply should be a number, written without any unit.

Query string: Reported phosphorylation enrichment, sequence RHSGSYLVTSV [APC_Y2838] : ____
Result string: 0.682

Query string: Which measured phosphorylation enrichment value corresponds to DSRRDYVSQFE [APOA1_Y53_G50R] ?
Result string: 0.464

Query string: Look up phosphorylation enrichment: RNNIEYVRDIG [MUSK_Y577]
Result string: 0.3

Query string: Bench note: what phosphorylation enrichment did CTTIFYNFMCN [TP53_Y234_H233Y_YF] show?
Result string: 1.93

Query string: What measured phosphorylation enrichment goes with HRFAAYFQQGD [GPI_Y351] ?
Result string: 0.643

Query string: # get_value(readout='phosphorylation enrichment', item= KPGLKYVTYGN [GALNTL5_Y404] )
Result string: 0.345

Query string: What phosphorylation enrichment value was documented for this sequence, AVISVYDLVVV [PSEN1_Y256_A260V] ?
Result string: 6.78

Query string: Give the measured phosphorylation enrichment of YSPCDYQPCLA [TNS1_Y798_Y796C] .
Result string: 3.24

Query string: Give its phosphorylation enrichment value. Item: IGEGTYRQVYK [CDK13_Y716_G717R]
Result string: 0.319

Query string: Would you kindly share the measured phosphorylation enrichment for GLSDLYVKIHL [SYT2_Y309_P308L] ?
Result string: 0.428

Query string: Return reported phosphorylation enrichment; argument: CRAVKYLQMVR [AVPR2_Y117_G122R]
Result string: 0.331

Query string: Recorded phosphorylation enrichment for AKRKNYAPVTM [CFAP47_Y557_A561T] , please?
Result string: 0.431
